From: patent US12157730B2

assay target: Ba/F3 cell EGFR Exon20 ins NPH (Homo sapiens, UniProt P00533, INS773NPH)
Construct: expressed in transfected cells; host or cells: Ba/F3
procedure details: Ba/F3 cell proliferation suppression, EGFR Exon20 ins NPH
Format: cell-based
condition details: GI50 class; Ba/F3 cell line with NPH inserted at Exon20 of EGFR; 72 hours
metric: Ba/F3 (NPH) Activity

C=CC(=O)Nc1cc(Nc2cc(N3OCC[C@@H]3c3ccc(F)cc3)ncn2)c(OC)cc1N1CCN(C)CC1 [compound 785] :: A (GI50 < 50 nM)
C=CC(=O)Nc1cc(Nc2cc(N3OCC[C@@H]3c3ccc(Cl)c(Cl)c3)ncn2)c(OC)cc1N1CCC(N2C[C@H]3C[C@@H]2CO3)CC1 [compound 690] :: A (GI50 < 50 nM)
C=CC(=O)Nc1cc(Nc2cc(N3OCC[C@@H]3c3ccccc3)ncn2)c(OC)cc1N1CCN(C)CC1 [Example 6] :: A (GI50 < 50 nM)
C=CC(=O)Nc1cc(Nc2cc(N3OCC[C@@H]3c3cccc(Cl)c3Cl)ncn2)c(OC)cc1N1CCC(N2CCN(CC)CC2)CC1 [compound 569] :: A (GI50 < 50 nM)

## Task # get_value(readout= Ba/F3 (NPH) Activity, system= Ba/F3 cell EGFR Exon20 ins NPH (Homo sapiens, UniProt P00533, INS773NPH)) for C=CC(=O)Nc1cc(Nc2cc(N3OCC[C@@H]3c3ccc(Cl)cc3)ncn2)c(OC)cc1N1CCC(N2CCOCC2)CC1 [compound 782]
## Result A (GI50 < 50 nM)

## Task Field entry: C=CC(=O)Nc1cc(Nc2cc(N3OCC[C@@H]3c3ccc(F)cc3F)ncn2)c(OC)cc1N1CCC(N2CCN(C)CC2)CC1 [compound 352]
## Result A (GI50 < 50 nM)

## Task Cool, now C=CC(=O)Nc1cc(Nc2cc(N3OCC[C@@H]3c3cc(F)cc(F)c3)ncn2)c(OC)cc1N1CCC(N2CC[C@@H](CN(C)C)C2)CC1 [compound 626]
## Result A (GI50 < 50 nM)

* * *

assay target: Ba/F3 cell EGFR Exon20 ins SVD (Homo sapiens, UniProt P00533, INS770SVD)
Construct: expressed in transfected cells; host or cells: Ba/F3
procedure details: Ba/F3 cell proliferation suppression, EGFR Exon20 ins SVD
Type: cell-based
condition details: 72 hours after treatment, CellTiter-Glo
metric: GI50

Recorded results for 10 compounds are shown here.
C=CC(=O)Nc1cc(Nc2cc(N3OCC[C@@H]3c3cc(F)cc(F)c3)ncn2)c(OC)cc1N1CCC(N2C[C@@H]3C[C@H]2CO3)CC1 :: < 0.05 µM
C=CC(=O)Nc1cc(Nc2cc(N3OCC[C@@H]3c3ccccc3)ncn2)ccc1N(C)CCN(C)C :: < 0.05 µM
C=CC(=O)Nc1cc(Nc2cc(N3OCC[C@@H]3c3cc(F)cc(F)c3)ncn2)c(OC)cc1N1CCC(N2CCOCC2)CC1 :: < 0.05 µM
C=CC(=O)Nc1cc(Nc2cc(N3OCC[C@@H]3c3cc(F)cc(F)c3)ncn2)c(OC)cc1N1CCC(N2CCN(C)CC2)CC1 :: < 0.05 µM
C=CC(=O)Nc1cc(Nc2cc(N3OCC[C@@H]3c3ccccc3)ncn2)c(OC)cc1N(C)CCN(C)C :: < 0.05 µM
C=CC(=O)Nc1cc(Nc2cc(N3OCC[C@@H]3c3ccccc3)ncn2)c(OC)cc1N1CCN(C2CCN(C)CC2)CC1 :: < 0.05 µM
C=CC(=O)Nc1cc(Nc2cc(N3OCC[C@@H]3c3cc(F)cc(F)c3)ncn2)c(OC)cc1N1CCC(N2C[C@H]3C[C@@H]2CO3)CC1 :: < 0.05 µM
C=CC(=O)Nc1cc(Nc2cc(N3OCC[C@@H]3c3ccccc3)ncn2)ccc1N1CCN(C)CC1 :: < 0.05 µM
C=CC(=O)Nc1cc(Nc2cc(N3OCC[C@@H]3c3ccccc3)ncn2)c(OC)cc1N1CCN(C)CC1 :: < 0.05 µM
C=CC(=O)Nc1cc(Nc2cc(N3OCC[C@@H]3c3cc(F)cc(F)c3)ncn2)c(OC)cc1N1CCC(N(C)C)CC1 :: < 0.05 µM

Moving on to the next compound.
## Task Entry C=CC(=O)Nc1cc(Nc2cc(N3OCC[C@@H]3c3cc(F)cc(F)c3)ncn2)c(OC)cc1N1CCC(N2CCN(CC)CC2)CC1 has what GI50?
## Result < 0.05 µM

* * *

Tested on: H1975
procedure details: Lung cancer cell proliferation suppression, H1975
Assay type: cell-based
condition details: Homo sapiens, NCI-H1975; 72 hours after treatment, CellTiter-Glo
metric: GI50 (nM)
Number in nM, nothing else.

Some entries whose results are on file:
C=CC(=O)Nc1cc(Nc2cc(N3OCC[C@@H]3c3cc(F)cc(F)c3)ncn2)c(OC)cc1N1CC[C@@H](N(C)C)C1 [Example 242] :: 4
C=CC(=O)Nc1cc(Nc2cc(N3OCC[C@@H]3c3ccccc3)ncn2)c(OC)cc1N1CCC(N2CCN(C)CC2)CC1 [Example 9] :: 6
C=CC(=O)Nc1cc(Nc2cc(N3OCC[C@@H]3c3cc(F)cc(F)c3)ncn2)c(OC)cc1N1CCC(N2CCN(CC)CC2)CC1 [Example 236] :: 1

## Task Endpoint output: GI50 of C=CC(=O)Nc1cc(Nc2cc(N3OCC[C@@H]3c3ccccc3)ncn2)c(OC)cc1N1CCN(C)CC1 [Example 6] . Value?
## Result 60

* * *

assay target: Ba/F3 cell EGFR Exon20 ins NPH (Homo sapiens, UniProt P00533, INS773NPH)
Construct: expressed in transfected cells; host or cells: Ba/F3
procedure details: Ba/F3 cell proliferation suppression, EGFR Exon20 ins NPH
Format: cell-based
condition details: GI50 class; Ba/F3 cell line with NPH inserted at Exon20 of EGFR; 72 hours
metric: Ba/F3 (NPH) Activity

C=CC(=O)Nc1cc(Nc2cc(N3OCC[C@@H]3c3cccc(F)c3F)ncn2)c(OC)cc1N1CCN(C2CC2)CC1 :: A (GI50 < 50 nM)
C=CC(=O)Nc1cc(Nc2cc(N3OCC[C@@H]3c3ccc(Cl)cc3)ncn2)c(OC)cc1N1CCC(N2CC[C@@H](N(C)C)C2)CC1 :: A (GI50 < 50 nM)
C=CC(=O)Nc1cc(Nc2cc(N3OCC[C@@H]3c3cc(F)ccc3F)ncn2)c(OC)cc1N1CCC(N2CC[C@@H](N(C)C)C2)CC1 :: A (GI50 < 50 nM)

* * *

assay target: Ba/F3 cell EGFR Exon20 ins NPH (Homo sapiens, UniProt P00533, INS773NPH)
Construct: expressed in transfected cells; host or cells: Ba/F3
procedure details: Ba/F3 cell proliferation suppression, EGFR Exon20 ins NPH
Assay type: cell-based
condition details: GI50 class; Ba/F3 cell line with NPH inserted at Exon20 of EGFR; 72 hours
metric: Ba/F3 (NPH) Activity

C=CC(=O)Nc1cc(Nc2cc(N3OCC[C@@H]3c3cc(F)ccc3F)ncn2)c(OC)cc1N1C[C@@H]2CCN(C)[C@@H]2C1 :: A (GI50 < 50 nM)
C=CC(=O)Nc1cc(Nc2cc(N3OCC[C@@H]3c3ccc(F)c(Cl)c3)ncn2)c(OC)cc1N(C)CCOC :: A (GI50 < 50 nM)
C=CC(=O)Nc1cc(Nc2cc(N3OCC[C@@H]3c3ccc(F)c(Cl)c3)ncn2)c(OC)cc1N1CCC(N2CCO[C@H](C)C2)CC1 :: A (GI50 < 50 nM)

* * *

assay target: Ba/F3 cell EGFR Exon20 ins NPH (Homo sapiens, UniProt P00533, INS773NPH)
Construct: expressed in transfected cells; host or cells: Ba/F3
procedure details: Ba/F3 cell proliferation suppression, EGFR Exon20 ins NPH
Type: cell-based
condition details: GI50 class; Ba/F3 cell line with NPH inserted at Exon20 of EGFR; 72 hours
metric: Ba/F3 (NPH) Activity

C=CC(=O)Nc1cc(Nc2cc(N3OCC[C@@H]3c3cc(F)cc(F)c3)ncn2)c(OC)cc1N1CCC(N2CCOCC2)CC1 :: A (GI50 < 50 nM)
C=CC(=O)Nc1cc(Nc2cc(N3OCC[C@@H]3c3cccc(Cl)c3)ncn2)c(OC)cc1N1CCC(N2CCN(CC)CC2)CC1 :: A (GI50 < 50 nM)

* * *

assay target: Ba/F3 cell EGFR Exon20 ins NPH (Homo sapiens, UniProt P00533, INS773NPH)
Construct: expressed in transfected cells; host or cells: Ba/F3
procedure details: Ba/F3 cell proliferation suppression, EGFR Exon20 ins NPH
Type: cell-based
condition details: GI50 class; Ba/F3 cell line with NPH inserted at Exon20 of EGFR; 72 hours
metric: Ba/F3 (NPH) Activity

C=CC(=O)Nc1cc(Nc2cc(N3OCC[C@@H]3c3cccc(Cl)c3F)ncn2)c(OC)cc1N1CCC(N2CCO[C@H](C)C2)CC1 [compound 357] :: A (GI50 < 50 nM)
C=CC(=O)Nc1cc(Nc2cc(N3OCC[C@@H]3c3cccc(F)c3Cl)ncn2)c(OC)cc1N1CCN(CC)CC1 [compound 559] :: A (GI50 < 50 nM)
C=CC(=O)Nc1cc(Nc2cc(N3OCC[C@@H]3c3ccc(Cl)cc3F)ncn2)c(OC)cc1N1CCC(N2C[C@@H](C)O[C@@H](C)C2)CC1 [compound 374] :: A (GI50 < 50 nM)
